# Assay System: hKv1.1 (Homo sapiens, UniProt Q09470)
# Construct: expressed in transfected cells
# Sequence (Q09470 whole entry): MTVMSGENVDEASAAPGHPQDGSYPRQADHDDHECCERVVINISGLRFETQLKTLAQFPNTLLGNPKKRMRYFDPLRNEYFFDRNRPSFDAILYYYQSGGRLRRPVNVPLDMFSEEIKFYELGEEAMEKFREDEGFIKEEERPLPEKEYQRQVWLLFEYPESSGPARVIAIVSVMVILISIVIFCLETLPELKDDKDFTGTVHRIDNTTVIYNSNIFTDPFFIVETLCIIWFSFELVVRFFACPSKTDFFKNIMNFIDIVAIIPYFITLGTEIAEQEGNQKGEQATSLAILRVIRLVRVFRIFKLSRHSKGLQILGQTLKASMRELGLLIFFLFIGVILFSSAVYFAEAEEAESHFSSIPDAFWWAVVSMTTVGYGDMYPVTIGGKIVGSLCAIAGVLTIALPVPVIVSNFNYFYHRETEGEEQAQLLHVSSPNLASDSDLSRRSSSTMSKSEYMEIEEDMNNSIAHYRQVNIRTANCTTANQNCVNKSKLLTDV
# Method Summary: Whole-cell patch-clamp inhibition of Kv1.1 currents in CHO cells stably transfected with hKv1.1
# Format: cell-based
# Test Context: from IC50 values, CHO-hKv1.1 vs CHO-hKv1.3
Give Selectivity for Kv1.3 over Kv1.1 for every item shown.
Entry rule: numbers only, all in fold.

Given item CC(=O)c1c(OCCNC2CCCCC2)c(OCCC(C)c2ccc(F)cc2)c2oc(C)nc2c1C (stereo not shown) , the value recorded as its Selectivity for Kv1.3 over Kv1.1 is 11

# Selectivity for Kv1.3 over Kv1.1 of CC(=O)c1c(OCCN2CCCC(F)(F)C2)c(OCCC(C)c2ccc(F)cc2)c2oc(C(F)F)nc2c1C (stereo not shown) [Example 31b] = 21

Noted for CC(=O)c1c(OCCN2CCSCC2)c(OCCC(C)c2ccc(F)cc2)c2oc(C)nc2c1C (stereo not shown) : its Selectivity for Kv1.3 over Kv1.1 reads 15

GET /value?item= CC(=O)c1c(OCCN2CCCCC2)c(OCCC(C)c2ccc(F)cc2)c2oc(C)nc2c1C (stereo not shown) &field=Selectivity for Kv1.3 over Kv1.1 returns 25

----------
For each record, write down the corresponding pIC50.
# Assay System: hKv1.3 (Homo sapiens, UniProt P22001)
# Sequence (P22001 whole entry): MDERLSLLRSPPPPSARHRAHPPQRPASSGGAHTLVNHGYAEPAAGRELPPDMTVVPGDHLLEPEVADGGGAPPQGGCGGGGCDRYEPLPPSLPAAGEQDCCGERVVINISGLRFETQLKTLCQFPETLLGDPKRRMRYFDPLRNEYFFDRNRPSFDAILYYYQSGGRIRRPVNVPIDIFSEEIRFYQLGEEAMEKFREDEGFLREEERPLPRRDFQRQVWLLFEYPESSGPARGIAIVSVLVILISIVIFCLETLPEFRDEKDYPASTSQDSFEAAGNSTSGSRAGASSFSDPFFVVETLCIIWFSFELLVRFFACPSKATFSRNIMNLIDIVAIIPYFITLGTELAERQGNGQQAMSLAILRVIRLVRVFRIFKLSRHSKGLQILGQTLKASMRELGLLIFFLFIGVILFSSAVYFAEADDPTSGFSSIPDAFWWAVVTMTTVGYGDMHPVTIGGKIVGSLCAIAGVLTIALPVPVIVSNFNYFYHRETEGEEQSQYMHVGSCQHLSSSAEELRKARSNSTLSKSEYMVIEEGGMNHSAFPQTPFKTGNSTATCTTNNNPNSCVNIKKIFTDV
# Method Summary: Whole-cell patch-clamp block of Kv1.3 current in CHO cells stably expressing hKv1.3
# Assay type: cell-based
# Test Context: CHO cells stably expressing hKv1.3, whole-cell patch clamp; reported as ranges; read-out: IC50 (Kv1.3)
pIC50: −log10 of the molar value.

compound CC(=O)c1c(OCCN2CCOCC2)c(OCCC(C)c2ccc(F)cc2)c2oc(C(C)C)nc2c1C (stereo not drawn) [Example 32c] , pIC50 observed: > 7.30

// field: pIC50; key: CC(=O)c1c(OCCN2CCOCC2)c(OCCC(C)c2ccc(F)cc2)c2oc(C3CC3)nc2c1C (stereo not drawn) [Example 35d] ; value = 6.70 to 7.30

Reported pIC50 ( CC(=O)c1c(OCCN2CCOCC2)c(OCCC(C)c2ccc(F)cc2)c2oc(C(F)F)nc2c1C (stereo not drawn) [Example 30c] ) = 6.70 to 7.30

// pIC50 lookup, compound = CC(=O)c1c(OCCN2CCCC(F)(F)C2)c(OCCC(C)c2ccc(F)cc2)c2oc(C(F)F)nc2c1C (stereo not drawn) [Example 31b] , result: > 7.30

The value of pIC50 measured for the compound CC(=O)c1c(OCCn2ccnc2C)c(OCCC(C)c2ccc(F)cc2)c2oc(C)nc2c1C (stereo not drawn) [Example 16] turned out to be 6.70 to 7.30

The reported value for CC(=O)c1c(OCC[n+]2ccc(N)cc2)c(OCCC(C)c2ccc(F)cc2)c2oc(C)nc2c1C (stereo not drawn) [Example 21] in terms of pIC50 is < 6.00

Consider CC(=O)c1c(OCCn2nnnc2N)c(OCCC(C)c2ccc(F)cc2)c2oc(C)nc2c1C (stereo not drawn) [Example 11b] . Its measured pIC50 is 6.70 to 7.30

Looking up CCN(CC)CCOc1c(C(C)=O)c(C)c2nc(C)oc2c1OCCC(C)c1ccc(F)cc1 (stereo not drawn) [Example 20] , I see its pIC50 listed as 6.00 to 6.70

Lab note: CC(=O)c1c(OCCc2ccccn2)c(OCCC(C)c2ccc(F)cc2)c2oc(C)nc2c1C (stereo not drawn) [Example 8] gave pIC50 of > 7.30

----------
# Assay System: hKv1.5 (Homo sapiens)
# Construct: expressed in transfected cells
# Sequence (P22460 whole entry): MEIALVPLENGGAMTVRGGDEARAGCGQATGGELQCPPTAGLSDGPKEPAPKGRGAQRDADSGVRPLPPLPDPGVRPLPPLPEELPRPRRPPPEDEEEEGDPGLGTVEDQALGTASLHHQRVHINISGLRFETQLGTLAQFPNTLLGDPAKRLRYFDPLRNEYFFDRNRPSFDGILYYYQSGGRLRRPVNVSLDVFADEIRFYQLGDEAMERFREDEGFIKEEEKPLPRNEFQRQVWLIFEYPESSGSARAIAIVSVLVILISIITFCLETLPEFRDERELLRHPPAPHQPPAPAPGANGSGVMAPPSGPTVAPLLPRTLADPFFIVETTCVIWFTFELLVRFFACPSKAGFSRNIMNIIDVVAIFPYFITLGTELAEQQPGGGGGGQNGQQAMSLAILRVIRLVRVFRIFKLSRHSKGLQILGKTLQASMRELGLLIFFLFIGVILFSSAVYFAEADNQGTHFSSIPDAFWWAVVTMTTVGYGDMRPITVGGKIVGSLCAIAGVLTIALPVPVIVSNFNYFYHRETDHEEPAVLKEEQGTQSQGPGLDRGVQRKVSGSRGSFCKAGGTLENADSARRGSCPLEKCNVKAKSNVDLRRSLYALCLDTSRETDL
# Method Summary: Whole-cell patch-clamp inhibition of Kv1.5 currents in CHO cells stably transfected with hKv1.5
# Type: cell-based
# Test Context: from IC50 values, CHO-hKv1.5 vs CHO-hKv1.3
What Selectivity for Kv1.3 over Kv1.5 was measured for each of the following?
# output: bare number, implied unit fold

Selectivity for Kv1.3 over Kv1.5 value, target or system hKv1.5 (Homo sapiens), for CC(=O)c1c(OCCN2CCCCC2)c(OCCC(C)c2ccc(F)cc2)c2oc(C)nc2c1C (stereo not shown) : 24

Form field Selectivity for Kv1.3 over Kv1.5 for item CC(=O)c1c(OCCNC2CCCCC2)c(OCCC(C)c2ccc(F)cc2)c2oc(C)nc2c1C (stereo not shown) on hKv1.5 (Homo sapiens): 12

Result for CC(=O)c1c(OCCN2CCCC(F)(F)C2)c(OCCC(C)c2ccc(F)cc2)c2oc(C(F)F)nc2c1C (stereo not shown) [Example 31b] , tested on hKv1.5 (Homo sapiens), Selectivity for Kv1.3 over Kv1.5: 29

hKv1.5 (Homo sapiens) data for CC(=O)c1c(OCCN2CCSCC2)c(OCCC(C)c2ccc(F)cc2)c2oc(C)nc2c1C (stereo not shown) ; its Selectivity for Kv1.3 over Kv1.5: 11

----------
# Assay System: hKv1.3 (Homo sapiens, UniProt P22001)
# Method Summary: Whole-cell patch-clamp block of Kv1.3 current in CHO cells stably expressing hKv1.3
# Type: cell-based
# Test Context: CHO cells stably expressing hKv1.3, whole-cell patch clamp; reported as ranges; read-out: IC50 (Kv1.3)
Could you please report measured IC50 for the items listed next?

For this compound ( CC(=O)c1c(OCCc2ccccn2)c(OCCC(C)c2ccc(F)cc2)c2ocnc2c1C (stereo not drawn) ), measured IC50 is < 50 nM

# IC50 (compound: CC(=O)c1c(OCCN2CCOCC2)c(OCCCc2ccccc2)c2ocnc2c1C ) is 50 to 200 nM

Lookup result for CC(=O)c1c(OCCc2ccccn2)c(OCCC(C)c2ccc(F)cc2)c2oc(C(F)(F)F)nc2c1C (stereo not drawn) ; measured IC50: 50 to 200 nM

GET /value?item= CC(=O)c1c(OCCN2CCSCC2)c(OCCC(C)c2ccc(F)cc2)c2oc(C)nc2c1C (stereo not drawn) &field=IC50 returns < 50 nM

# IC50 (compound: CC(=O)c1c(OCCN2CCCC(F)(F)C2)c(OCCC(C)c2ccc(F)cc2)c2oc(C(C)C)nc2c1C (stereo not drawn) [Example 33b] ) is 50 to 200 nM

// field: IC50; key: CC(=O)c1c(OCCN2CCOCC2)c(OCCC(C)c2ccc(F)cc2)c2oc(C)nc2c1C (stereo not drawn) ; value = < 50 nM

Kindly note the recorded IC50 for CC(=O)c1c(OCCn2nnc(N)n2)c(OCCC(C)c2ccc(F)cc2)c2oc(C)nc2c1C (stereo not drawn) [Example 11a] , which is < 50 nM

Lab book: IC50 of CC(=O)c1c(OCCN=C(N(C)C)N(C)C)c(OCCC(C)c2ccc(F)cc2)c2oc(C)nc2c1C (stereo not drawn) noted as 200 to 1000 nM

CC(=O)c1c(OC2CN(C3CCCC3)C2)c(OCCC(C)c2ccc(F)cc2)c2oc(C)nc2c1C (stereo not drawn) [Example 41b] has a reported IC50 of 50 to 200 nM
